biological target: T1, rhesus monkey transferrin receptor (rhTfR) fused to EGFP, on CHO cells (rhesus monkey); experiment: apparent Kd, flow cytometry, CHO cells
T1 construct: whole, on cells; also called rhesus monkey TfR

{"Binder": "C5^V32 (VHH) VHH: EVQLVESGGGVVQPGGSLKLSCVASGTDFSINFIRWYSQAPGKQREFVAGFTATGNTNYADSMKGRLTISRDNTKNAVYLQIDSLKPEDTAVYYCYMLGKWGQGTQVTVSS", "Unit Tag": "nM", "Kd": 653}
{"Binder": "B8^V27 (VHH) VHH: EVQLVESGGGVVQPGGSLRLSCAASGEIFSINFMRWYRQAPGKQREWVAGFTRDGSTVYPDSAKGRFTISRDNAKNTVYLQIDSLKPEDTAVYYCYMLDTWGQGTQVTVSS", "Unit Tag": "nM", "Kd": 16}
{"Binder": "B8^V14 (VHH) VHH: EVQLVESGGGVVQPGGSLRLSCAASGEIFSINFMRWYRQAPGKQREWVAGFTRLGSTNYPDSAKGRFTISRDNAKNTVYLQIDSLKPEDTAVYYCYMLDTWGQGTQVTVSS", "Unit Tag": "nM", "Kd": 1.9}
{"Binder": "B8^V19 (VHH) VHH: EVQLVESGGGVVQPGGSLRLSCAASGEIFSINFMRWYRQAPGKQRHWVAGFTRDGSTNYPDSAKGRFTISRDNAKNTVYLQIDSLKPEDTAVYYCYMLDTWGQGTQVTVSS", "Unit Tag": "nM", "Kd": 2.3}
{"Binder": "C5^h11 (VHH) VHH: EVQLVESGGGVVQPGGSLRLSCAASGTDFSINFIRWVRQAPGKGLEWVAGFTATGNTNYADSMKGRFTISRDNTKNTLYLQMNSLRPEDTAVYYCYMLDKWGQGTQVTVSS", "Unit Tag": "nM", "Kd": 1240}
{"Binder": "B8^V29 (VHH) VHH: EVQLVESGGGVVQPGGSLRLSCAASGEIFSINFMRWYRQAPGKQREWVAGFTRDGSTNYPDSAKGRFTISRDNAKNTVYLQIDSLKPEDTAVYYCYMADTWGQGTQVTVSS", "Unit Tag": "nM", "Kd": 72}
{"Binder": "B8^V35 (VHH) VHH: EVQLVESGGGVVQPGGSLRLSCAASGEIRSINFMRWYRQAPGKQREWVAGFTRDGSLNYPDSAKGRFTISRDNAKNTVYLQIDSLKPEDTAVYYCYMLDTWGKGTQVTVSS", "Unit Tag": "nM", "Kd": 23}
{"Binder": "B4a (VHH) VHH: EVQLVESGGGLVQAGGSLRLSCTASGRTVSNYRMGWFRQTPGKEREFVAAIAWAGGSLTYADSVKGRFTISRDNAKNTVYLQMNSLEPTDTAVYYCKGSRIFPTRDYWGKGTQVTVSS", "Unit Tag": "nM", "Kd": 479}
{"Binder": "H1 (VHH, also called phage-H1 (as tracer)) VHH: EVQLVESGGGLVQPGGSLRLSCAASGFASHLYAIGWFRQAPGKEREKVSCISSNDGSTYYADSVKGRFTISRDTVKDMVYLQMNSLKPEDTAVYYCATDLTVHCFMAEYDWWGQGTQVTVSS", "Unit Tag": "nM", "Kd": 3.7}
{"Binder": "C5^V21 (VHH) VHH: EVQLVESGGGVVQPGGSLKLSCVASGTDFSINFIRWYRQAPGKQREFVAGWTATGNTNYADSMKGRFTISRDNTKNAVYLQIDSLKPEDTAVYYCYMLDKWGQGTQVTVSS", "Unit Tag": "nM", "Kd": 8.2}
{"Binder": "A9a (VHH) VHH: QVQLVQSGGGLVQAGGSLRLSCAASGSIFLINDMGWYRQAPGKQRELVAVRGGSTKYGDSVKGRFTISRDDAKNTVYLQMNSLKPEDTAVYYCHRESGLGSSEYWGQGTQVTVSS", "Unit Tag": "nM", "Kd": 965}
{"Binder": "B8^V6 (VHH) VHH: EVQLVESGGGVVQPGGSLRLSCAASGEIFSINFMRWYRQAPGKQREWVAGFTRDGFTNYPDSAKGRFTISRDNAKNTVYLQIDSLKPEDTAVYYCYMLDTWGQGTQVTVSS", "Unit Tag": "nM", "Kd": 2.7}
{"Binder": "B8^V25 (VHH) VHH: EVQLVESGGGVVQPGGSLRLSCAASGEIFSINFMRWYRQAPGKQREWVAAFTRDGSTNYPDSAKGRFTISRDNAKNTVYLQIDSLKPEDTAVYYCYMLDTWGQGTQVTVSS", "Unit Tag": "nM", "Kd": 425}
{"Binder": "VHH A2 (C5^V2) (VHH) VHH: EVQLVESGGGVVQPGGSLKLSCVASGTAFSINFIRWYRQAPGKQREFVAGFTATGNTNYADSMKGRFTISRDNTKNAVYLQIDSLKPEDTAVYYCYMLDKWGQGTQVTVSS", "Unit Tag": "nM", "Kd": 5.7}
{"Binder": "B8^h1 (VHH) VHH: EVQLVESGGGVVQPGGSLRLSCAASGEIFSINFMRWYRQAPGKGLEWVAGFTRDGSTNYPDSVKGRFTISRDNAKNTVYLQMNSLRPEDTAVYYCYMLDTWGQGTQVTVSS", "Unit Tag": "nM", "Kd": 1.9}
{"Binder": "B8^V23 (VHH) VHH: EVQLVESGGGVVQPGGSLRLSCAASGEIFSINFMIWYRQAPGKQREWVAGFTRDGSTNYPDSAKGRFTISRDNAKNTVYLQIDSLKPEDTAVYYCYMLDTWGQGTQVTVSS", "Unit Tag": "nM", "Kd": 939}
